Measured values drawn from patent US20240415914A1 for this set.

Experiment: Stability of cannabinoid and Vitamin E components of Beverage 1 (AB White) stored at 8° C. and 21-25° C., LCMSMS over 570 days
Type: physicochemical
Conditions: beverage stored at 8° C., day 15
Label Y for high-side Stability in AB White, 8° C. (content by LCMSMS) (at or above 2 µg/mL) and N for low-side Stability in AB White, 8° C. (content by LCMSMS) (below it).

>  <compound>
C=C(C)[C@@H]1CCC(C)=C[C@H]1c1c(O)cc(CCC)cc1O [CBDV, cannabidivarin]

>  <class.assignment>
N

$$$$
>  <compound>
CCCCCc1cc2c(c(O)c1C(=O)O)[C@@H]1C=C(C)CC[C@H]1C(C)(C)O2 [D9 THCA, delta-9-tetrahydrocannabinolic acid]

>  <class.assignment>
N

$$$$
>  <compound>
CCCc1cc(O)c2c(c1)OC(C)(C)[C@@H]1CCC(C)=C[C@@H]21 [THCV, delta-9-tetrahydrocannabivarin]

>  <class.assignment>
Y

$$$$
>  <compound>
CCCCCc1cc(O)c2c(c1)OC(C)(C)[C@@H]1CCC(C)=C[C@@H]21 [D9 THC, delta-9-tetrahydrocannabinol, reference compound]

>  <class.assignment>
Y

$$$$
>  <compound>
C=C(C)[C@@H]1CCC(C)=C[C@H]1c1c(O)cc(CCCCC)cc1O [CBD, cannabidiol, reference compound]

>  <class.assignment>
Y

$$$$
>  <compound>
CCCCCc1cc(O)c(C/C=C(\C)CCC=C(C)C)c(O)c1 [CBG, cannabigerol]

>  <class.assignment>
Y

$$$$
>  <compound>
CCCCCc1cc(O)c2c(c1)OC1(C)CCC3C1C2C3(C)C (stereo not shown) [CBL, cannabicyclol]

>  <class.assignment>
N

$$$$
>  <compound>
CCCCCc1cc(O)c2c(c1)OC(C)(CCC=C(C)C)C=C2 (stereo not shown) [CBC, cannabichromene]

>  <class.assignment>
N

$$$$
>  <compound>
C=C(C)[C@@H]1CCC(C)=C[C@H]1c1c(O)cc(CCCCC)c(C(=O)O)c1O [CBDA, cannabidiolic acid]

>  <class.assignment>
N

$$$$
>  <compound>
CCCCCc1cc(O)c2c(c1)OC(C)(C)c1ccc(C)cc1-2 [CBN, cannabinol]

>  <class.assignment>
Y

$$$$

====

This listing pairs molecules with measured Stability in AB White, 8° C. (content by LCMSMS).
Experiment: Stability of cannabinoid and Vitamin E components of Beverage 1 (AB White) stored at 8° C. and 21-25° C., LCMSMS over 570 days
Assay type: physicochemical
Conditions: beverage stored at 8° C., day 18
test.readout: Stability in AB White, 8° C. (content by LCMSMS) (µg/mL)

>  <molecule>
CCCCCc1cc(O)c2c(c1)OC(C)(C)[C@@H]1CCC(C)=C[C@@H]21 [D9 THC, delta-9-tetrahydrocannabinol, reference compound]

>  <obs.value>
12.00

$$$$
>  <molecule>
C=C(C)[C@@H]1CCC(C)=C[C@H]1c1c(O)cc(CCCCC)cc1O [CBD, cannabidiol, reference compound]

>  <obs.value>
27.87

$$$$
>  <molecule>
CCCCCc1cc(O)c2c(c1)OC1(C)CCC3C1C2C3(C)C (stereo not shown) [CBL, cannabicyclol]

>  <obs.value>
0.536

$$$$
>  <molecule>
CCCCCc1cc(O)c2c(c1)OC(C)(CCC=C(C)C)C=C2 (stereo not shown) [CBC, cannabichromene]

>  <obs.value>
0.312

$$$$
>  <molecule>
C=C(C)[C@@H]1CCC(C)=C[C@H]1c1c(O)cc(CCC)cc1O [CBDV, cannabidivarin]

>  <obs.value>
0.146

$$$$
>  <molecule>
CCCc1cc(O)c2c(c1)OC(C)(C)[C@@H]1CCC(C)=C[C@@H]21 [THCV, delta-9-tetrahydrocannabivarin]

>  <obs.value>
3.59

$$$$
>  <molecule>
CCCCCc1cc(O)c2c(c1)OC(C)(C)c1ccc(C)cc1-2 [CBN, cannabinol]

>  <obs.value>
2.71

$$$$
>  <molecule>
CCCCCc1cc(O)c(C/C=C(\C)CCC=C(C)C)c(O)c1 [CBG, cannabigerol]

>  <obs.value>
4.81

$$$$
>  <molecule>
C=C(C)[C@@H]1CCC(C)=C[C@H]1c1c(O)cc(CCCCC)c(C(=O)O)c1O [CBDA, cannabidiolic acid]

>  <obs.value>
1.76

$$$$
>  <molecule>
CCCCCc1cc2c(c(O)c1C(=O)O)[C@@H]1C=C(C)CC[C@H]1C(C)(C)O2 [D9 THCA, delta-9-tetrahydrocannabinolic acid]

>  <obs.value>
0.950

$$$$
